# targetDesc: T1, MICA*008 on MEL-JUSO cells (human, UniProt Q29983 24-317)
# T1 chain: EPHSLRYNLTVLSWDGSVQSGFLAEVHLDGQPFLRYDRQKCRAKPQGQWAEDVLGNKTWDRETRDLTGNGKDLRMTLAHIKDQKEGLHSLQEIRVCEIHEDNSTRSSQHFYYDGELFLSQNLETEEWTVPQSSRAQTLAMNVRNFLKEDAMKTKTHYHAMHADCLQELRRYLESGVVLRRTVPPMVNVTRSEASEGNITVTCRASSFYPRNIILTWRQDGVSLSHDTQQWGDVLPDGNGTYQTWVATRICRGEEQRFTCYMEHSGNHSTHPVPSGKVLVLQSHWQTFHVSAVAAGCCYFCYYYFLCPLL
# assayProcedure: cell-based or functional assay
measuredProperty: EC50 of shedding inhibition (µg/mL)
Give the value, in units of µg/mL, as a plain number.

Sample answers from the record:
{"binder": "3E11 (antibody, V domains shown, Mouse hybridoma antibody; constant regions differ by assay) VH: EIQLQQSGPELVKPGASVKVSCTASGYAFTKYNIYWVKQSHGKSLEWIGYIDPYTGGTISNQKFTGRATLTVDKSSSTAYLHLNSLTSEDSAVYYCARPGSYWYFGVWGAGTTVTVSS VL: DILMTQTPLSLPVSLGDQASISCRSSQSIVYTNGNTNLEWYLQKPGQSPKLLIYKVSNRFSGVPDRFSGSGSGTDFTLKISRVEAEDLGVYYCFQASYVPFTFGSGTKVEIK", "val": 0.265}
{"binder": "13A9 (antibody, V domains shown, Mouse variable domains; constant regions differ by assay) VH: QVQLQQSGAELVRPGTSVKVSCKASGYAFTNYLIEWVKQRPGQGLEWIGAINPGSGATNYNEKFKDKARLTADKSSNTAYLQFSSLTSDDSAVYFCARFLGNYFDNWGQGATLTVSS VL: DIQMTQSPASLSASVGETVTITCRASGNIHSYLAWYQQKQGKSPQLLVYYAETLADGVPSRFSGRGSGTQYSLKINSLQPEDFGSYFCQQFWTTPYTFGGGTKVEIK", "val": 0.489}

Next binder, please.
Lookup: Entry 15F11 (antibody, V domains shown, Mouse variable domains; constant regions differ by assay) VH: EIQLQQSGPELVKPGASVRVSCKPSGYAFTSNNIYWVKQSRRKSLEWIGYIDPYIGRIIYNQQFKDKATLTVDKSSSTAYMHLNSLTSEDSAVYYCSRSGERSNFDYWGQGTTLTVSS VL: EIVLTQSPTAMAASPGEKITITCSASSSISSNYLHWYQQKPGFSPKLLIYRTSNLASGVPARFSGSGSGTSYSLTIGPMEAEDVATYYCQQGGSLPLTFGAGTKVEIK has what EC50 of shedding inhibition?
Found: 0.0165
